PROTOCOL: AUC (0 to 12 hrs) in human at 400 mg, po bid from day 11 to day 20 pretreated with voriconazole 400 mg, po bid on day 1 and 200 mg, po bid on day 2 and 3 followed by washout from day 4 to day 10
Assay type: ADME, organism-based
Parameters: dose 400 mg, time < 12 hr, route oral
MEASUREMENT_PARAMETERS: plasma
OBSERVABLE: AUC at 12 h (ng·h/mL)

CHEM_SMILES | OBSERVABLE | QUANTITY_UNIT | RECORDED_NUMBER
CC(C)c1nc(CN(C)C(=O)N[C@H](C(=O)N[C@@H](Cc2ccccc2)C[C@H](O)[C@H](Cc2ccccc2)NC(=O)OCc2cncs2)C(C)C)cs1 | AUC at 12 h | ng·h/mL | 68000
